Protocol Description: Half life in rhesus monkey at 0.5 mg/kg, iv and 2 mg/kg, po
Assay type: ADME, organism-based, Macaca mulatta
Condition Set: in vivo
Reported Property: half-life
Show the value, then the unit it is measured in.

Bench note: what half-life did CCS(=O)(=O)CCC12CCC(c3nnc(-c4ccccc4C(F)(F)F)n3C)(CC1)CC2 show?
6.5 h

###

Protocol Description: Half life in Sprague-Dawley rat at 1 mg/kg, iv and 4 mg/kg, po
Type: ADME, organism-based
Condition Set: in vivo
Reported Property: half-life (h)
Entry rule: numbers only, all in h.

Bench note: what half-life did CCS(=O)(=O)CCC12CCC(c3nnc(-c4ccccc4C(F)(F)F)n3C)(CC1)CC2 show?
4.9

Attribution: ChEMBL document CHEMBL1759916
